From: the supplement of paper PMC9170038

test system: MS2 coat protein; test: apparent KD of MS2 coat protein; designed switch direction (-1 OFF switch, 1 ON switch): -1; higher = weaker reporter binding; settings: input ligand: none
measure: apparent KD of MS2 coat protein (nM)
Give a bare numeral; the unit nM is implied.

Lookup: Write apparent KD of MS2 coat protein of GGGCUCGGAGGAUAUACAAUGGGCUCGGGAAAUCGGGCUCUACAUGAGGAUCACCCAUGUAGAAGGUCGGGCUC [-38.9, -35.6 kcal A 24%, 4,4] (Eterna round: R97, puzzle: Exclusion 2) ; system used: MS2 coat protein
Found: 14.1

Lookup: Write apparent KD of MS2 coat protein of GCCGUAAAUGUGAGGAUAUACCUAUGGAUACAUAGGUAGAAGGCACAUGAGGAUCACCCAUGUCCUUAAUCGGC [Eli BMX r4m3] (Eterna round: R97, puzzle: Brourd's mod of Exclusion 4) ; system used: MS2 coat protein
Found: 409

Lookup: Write apparent KD of MS2 coat protein of AGUCGGUCAGGAUAUGCAGACGUAGACAUGAGGAUCACCCAUGUAACGUGGGCCUGGUUUGUAGAAGGGACGAGCA [EX5 #84] (Eterna round: R97, puzzle: Exclusion 5) ; system used: MS2 coat protein
Found: 42.4
